GI50 values for the compounds below.
System: MCF7
PROTOCOL_DESCRIPTION: NCI tumour cell line growth inhibition, 48 h
Active and inactive are the calls of the source. Rule as the data show it: active = GI50 up to about 1.1 µM and inactive = higher.

Guide cases for GI50, answers given:
{"COMPOUND": "Cc1cc2c(c(/C=N/c3ccc(N(C)C)cc3)c1)OC1(C=C2)Oc2ccccc2C(=O)N1C (stereo not given)", "GI50": "16.2 µM (inactive)"}
{"COMPOUND": "CC1(C2(C)OC(=O)c3ccccc32)OC(=O)c2ccccc21 (stereo not given)", "GI50": "> 100 µM (inactive)"}
{"COMPOUND": "Cc1c(C(=O)c2ccccc2)[n+]([O-])c2cc(Cl)c(Cl)cc2[n+]1[O-]", "GI50": "10.7 µM (inactive)"}
{"COMPOUND": "C[N+](C)(CCNc1ccc(NCC[N+](C)(C)Cc2ccc([N+](=O)[O-])cc2)c2c1C(=O)c1ccccc1C2=O)Cc1ccc([N+](=O)[O-])cc1", "GI50": "> 100 µM (inactive)"}

Please give the measured GI50 for this compound: CC(=O)Nc1ccc2c(C(=O)O)c(C)c(O)nc2n1
> 100 µM (inactive)

Please give the measured GI50 for this compound: COc1ccccc1CNC1=Nc2ccncc2S(=O)(=O)N1c1ccccc1
79.4 µM (inactive)
